Source listed as patent US20240409557A1.

molecular target: human recombinant 15-PGDH (Homo sapiens); experiment: Recombinant 15-PGDH enzymatic inhibition assay (PGDH-Lumi, NADH signal); format: biochemical; settings: recombinant 15-PGDH; 15 min pre-incubation, 60 min reaction with PGE2 and NAD+, NADH signal
metric_name: IC50 (nM)

Here's what some known entries look like.
{"columns": ["molecule", "subject_of_test", "assay_value"],
 "data": [
  ["CO[C@H]1C[C@@H]([C@H](O)c2cc3ccc(-c4cnc5nn(C)cc5c4)nc3s2)C1 (single isomer, unassigned) [Compound B88SC]", "human recombinant 15-PGDH (Homo sapiens)", 10.1],
  ["Nc1ncc(-c2ccc3cc(C4(O)CC(F)(F)C4)sc3n2)cn1 [Compound C38]", "human recombinant 15-PGDH (Homo sapiens)", 4.59],
  ["CN1CCC1C(O)c1cc2ccc(-c3cnc4nn(C)cc4c3)nc2s1 (stereo not shown) [Compound B45]", "human recombinant 15-PGDH (Homo sapiens)", 8.64]
]}

[1] CO[C@]1(C)C[C@](O)(c2cc3cnc(-c4cnc5c(c4)nnn5C)nc3s2)C1 (single isomer, unassigned) [Compound C121T]
[2] COCC(O)c1cc2ccc(-c3cnc4nn(C)cc4c3)nc2s1 (stereo not shown) [Compound B32]
[3] O=C1NCc2cc(-c3ncc4cc([C@]5(O)C[C@@H](C(F)(F)F)C5)sc4n3)cnc21 [Compound C128C]
[4] Cn1cc2cc(-c3ccc4cc([C@@H](O)C5COC5)sc4n3)cnc2n1 (single isomer, unassigned) [Compound B28S]
Order the 4 molecules from highest to lowest IC50. Write the labels in rank order as requested. 4, 1, 2, 3

---

Biological target: human recombinant 15-PGDH (Homo sapiens)
Sequence (P15428 1-266): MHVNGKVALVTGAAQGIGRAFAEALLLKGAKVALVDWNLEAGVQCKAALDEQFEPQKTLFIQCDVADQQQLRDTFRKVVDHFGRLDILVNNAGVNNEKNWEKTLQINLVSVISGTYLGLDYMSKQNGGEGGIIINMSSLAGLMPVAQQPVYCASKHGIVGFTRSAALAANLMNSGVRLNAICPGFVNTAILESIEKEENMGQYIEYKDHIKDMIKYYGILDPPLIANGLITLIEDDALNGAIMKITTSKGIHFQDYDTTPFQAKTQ
Assay: Recombinant 15-PGDH enzymatic inhibition assay (PGDH-Lumi, NADH signal)
Details: recombinant 15-PGDH; 15 min pre-incubation, 60 min reaction with PGE2 and NAD+, NADH signal
metric_name: IC50 (nM)

# annotated cases, reported IC50 shown
{"columns": ["compound", "metric_name", "scale_unit", "assay_value"],
 "data": [
  ["Cn1cc2cc(-c3ccc4cc(C5(O)CC6(CCCC6)C5)sc4n3)cnc2n1", "IC50", "nM", 0.363],
  ["Cn1cc2cc(-c3cnc4cc([C@H](O)C5CC(F)(F)C5)sc4n3)cnc2n1 [Compound B92R]", "IC50", "nM", 0.511],
  ["Cn1cc2cc(-c3ccc4sc([C@]5(O)C[C@@](C)(C#N)C5)cc4n3)cnc2n1 (single isomer, unassigned) [Compound C106C]", "IC50", "nM", 16.7],
  ["O[C@]1(c2cc3cnc(-c4ccc5nccnc5c4)nc3s2)C[C@H](C(F)(F)F)C1 [Compound C123C]", "IC50", "nM", 0.967],
  ["CO[C@]1(C)C[C@@](O)(c2nc3ccc(-c4cnc5nn(C)cc5c4)nc3s2)C1 (single isomer, unassigned) [Compound C125C]", "IC50", "nM", 0.817]
]}

[A] Cc1cc2[nH]ncc2cc1-c1ccc2cc([C@@H](O)C3CCOCC3)sc2n1 (single isomer, unassigned) [Compound B38S]
[B] CC(O)c1cc2ccc(-c3cnc4nn(C)cc4c3)nc2s1 (stereo not shown)
I would appreciate it if you could say which entry, A or B , has the lower IC50 value. Answer by quoting the chosen item's label. B
(B: 5.85 nM, A: 1010 nM)

---

molecular target: human recombinant 15-PGDH (Homo sapiens, UniProt P15428); experiment: Recombinant 15-PGDH enzymatic inhibition assay (PGDH-Lumi, NADH signal); details: recombinant 15-PGDH; 15 min pre-incubation, 60 min reaction with PGE2 and NAD+, NADH signal
pIC50: −log10 of the molar value.
metric_name: pIC50

As a guide, the following entries are already answered.
{"columns": ["molecule", "pIC50"],
 "data": [
  ["Cn1cc2cc(-c3ccc4cc([C@]5(O)C[C@]6(CCO6)C5)sc4n3)cnc2n1 (single isomer, unassigned) [Compound C56C]", 9.37],
  ["Cn1cc2cc(-c3cnc4sc([C@@H](O)C5CC(F)(F)C5)cc4n3)cnc2n1 [Compound B96S]", 8.51],
  ["Cn1cc2cc(-c3ccc4nc([C@]5(O)C[C@@]6(CC6(F)F)C5)sc4n3)cnc2n1 (single isomer, unassigned) [Compound C115T]", 9.29]
]}

[A] CC(C)n1cc2cc(-c3ccc4cc(C(O)C5CC(F)(F)C5)sc4n3)ccc2n1 (stereo not drawn)
[B] Cn1nccc1-c1cc(-c2ccnn2C)c2cc(C(O)C3CCC3)sc2n1 (stereo not drawn)
Min pIC50? A | B Choose, then provide that item's label. B
(B: 7.23, A: 8.94)

[a] CO[C@]1(C)C[C@](O)(c2cc3ccc(-c4cnc5c(c4)nnn5C)nc3s2)C1 (single isomer, unassigned) [Compound C102T]
[b] Cn1cc2cc(-c3ccc4cc(C5(O)CC(F)(F)C5)sc4n3)ccc2n1
[c] Cn1cc2cc(-c3ccc4cc(C(O)C(F)(F)F)sc4n3)cnc2n1 (stereo not drawn)
[d] Cn1cc2cc(-c3ccc4cc([C@H](O)C5CC(F)(F)C5)ccc4n3)cnc2n1 (single isomer, unassigned)
[e] CN(C)c1c(CO)c(-c2cnc3nn(C)cc3c2)nc2sc(CO)cc12
Highest pIC50 first, then in falling order down to the smallest. Submit the labels in the order that the ranking request calls for. c, a, b, d, e

[A] Cc1cn2cc(-c3ccc4cc(C5(O)CC(F)(F)C5)sc4n3)ccc2n1
[B] Cn1cc2cc(-c3ccc4cc(C(O)C5CCC(F)(F)CC5)sc4n3)cnc2n1 (stereo not drawn)
Task for the reader: decide whether A or B has the larger pIC50. Identify your pick by its label. B
(B: 9.38, A: 8.05)

[A] Cc1cn2ccc(-c3ccc4cc([C@@H](O)C5CC(F)(F)C5)sc4n3)cc2n1 (single isomer, unassigned) [Compound B55S]
[B] Cn1cc2cc(-c3ccc4c(N)c([C@H](O)C5CC(F)(F)C5)sc4n3)cnc2n1 (single isomer, unassigned) [Compound B95R]
Recorded pIC50 values differ for A and B ; which one is higher? To answer, give the label that identifies your chosen option. B
(B: 8.92, A: 8.58)

---

Target: human recombinant 15-PGDH (Homo sapiens, UniProt P15428)
Test: Recombinant 15-PGDH enzymatic inhibition assay (PGDH-Lumi, NADH signal)
Details: recombinant 15-PGDH; 15 min pre-incubation, 60 min reaction with PGE2 and NAD+, NADH signal
Procedure: These assays measured 15-PGDH enzymatic activity by quantifying the amount of NADH produced during a 60-minute reaction initiated by the addition of PGE2 and NAD+. Under the conditions of these experiments, the increase of NADH signal upon oxidation of PGE2 and reduction of NAD+ was linearly proportional to 15-PGDH enzymatic activity. […] After 60 minutes at room temperature, the reaction was quenched and NADH signal was measured using a microtiter plate reader. […]
metric_name: IC50 (nM)

{"columns": ["molecule", "assay_value"],
 "data": [
  ["Cn1nc2cc(-c3ccc4cc([C@H](O)C5CCOCC5)sc4n3)cnc2n1 (single isomer, unassigned) [Compound B39R]", 0.423]
]}

[1] OC1(c2cc3ccc(-c4cnc5nccnc5c4)nc3s2)CC(F)(F)C1
[2] Cc1c([C@@H](O)C2CCOCC2)sc2nc(-c3cnc4c(c3)nnn4C)ccc12 (single isomer, unassigned) [Compound B89S]
Form: Entry with minimum IC50 (choose one): 1 / 2 I would appreciate it if you answered with the label of your choice. 1
(1: 0.996 nM, 2: 922 nM)

[a] CCn1cc2cc(-c3ccc4cc([C@]5(O)C[C@@H](C(F)F)C5)sc4n3)cnc2n1 [Compound C87C]
[b] Cc1n[nH]c2ccc(-c3ccc4cc([C@@H](O)C5CCOCC5)sc4n3)cc12 (single isomer, unassigned) [Compound B40S]
[c] Cn1cc2cc(-c3ccc4cc([C@@H](O)CCC(F)(F)F)sc4c3)cnc2n1 (single isomer, unassigned) [Compound B60S]
[d] O[C@@H](c1cc2ccc(-c3ccc4[nH]ncc4c3)nc2s1)C1CCOCC1 (single isomer, unassigned) [Compound B37R]
Rank the 4 molecules: largest IC50 first, smallest last. Give the order by naming the labels one after another as requested. b, c, d, a

---

target: human recombinant 15-PGDH (Homo sapiens, UniProt P15428); assay: Recombinant 15-PGDH enzymatic inhibition assay (PGDH-Lumi, NADH signal); conditions: recombinant 15-PGDH; 15 min pre-incubation, 60 min reaction with PGE2 and NAD+, NADH signal
metric_name: IC50 (nM)

{"columns": ["compound", "scale_unit", "IC50"],
 "data": [
  ["Cc1n[nH]c2ccc(-c3ccc4cc([C@H](O)C5CCOCC5)sc4n3)cc12 (single isomer, unassigned) [Compound B40R]", "nM", 7.16],
  ["COC(c1cc2c(-c3ccnn3C)cc(-c3cnc4nn(C)cc4c3)nc2s1)C1CCC1 (stereo not drawn)", "nM", 39.7],
  ["C[C@@H](O)c1cc2c(C3CC3)cc(-c3cnc4nn(C)cc4c3)nc2s1 (single isomer, unassigned) [Compound B11R]", "nM", 3.42]
]}

[a] Cn1nnc2cc(-c3ccc4ccc([C@H](O)C5CCOCC5)cc4n3)cnc21 (single isomer, unassigned)
[b] Cn1cc2cc(-c3ccc4nc([C@]5(O)C[C@@](C)(C#N)C5)sc4n3)cnc2n1 (single isomer, unassigned) [Compound C91C]
[c] Cn1cc2cc(-c3ccc4cc([C@@H](O)[C@@H]5CC5(F)F)sc4n3)cnc2n1 (single isomer, unassigned) [Compound B85SS]
Order the records so the highest IC50 appears first and the lowest last. A ranking is expressed here by listing the labels in the requested order. a, c, b
(a: 21700 nM, c: 3.32 nM, b: 0.799 nM)
